assay comment: PAMPA-BBB permeability (porcine brain lipid artificial membrane)
Assay type: in vitro ADME
Set-up: key: permeable to the BBB (CNS+) if it has a permeability >4.48×10^−6 cm·s^−1; CNS+/−: located in the zone of uncertainty
test parameters: prediction from Pe, PAMPA-BBB
property name: PAMPA prediction of the penetration into the central nervous system (CNS)

chemical_string=COc1ccc(C(=O)CSc2ncnc3[nH]cnc23)cc1 reported_value=CNS+/−
chemical_string=COc1cccc(C(=O)CSc2ncnc3[nH]cnc23)c1 reported_value=CNS+/−

###

assay comment: PAMPA-BBB permeability (porcine brain lipid artificial membrane)
Assay type: in vitro ADME
test parameters: pig, PAMPA; porcine brain lipid, PBS pH 7.4/EtOH 70:30, 2 h 30 min at 25° C.; mean ± SD; read-out: Pe (permeability, PAMPA-BBB)
Recorded Papp at 2.5 h values for a group of compounds are listed next.
property name: Papp at 2.5 h (×10⁻⁶ cm/s)

compound="c1ccc(CSc2ncnc3[nH]ccc23)cc1 [compound 10]" quantity_unit="×10⁻⁶ cm/s" reported_value=4.5
compound="O=C(CSc1ncnc2[nH]cnc12)c1ccc2ccccc2c1 [compound 3]" quantity_unit="×10⁻⁶ cm/s" reported_value=9.6
compound="Clc1ccccc1CCSc1ncnc2[nH]cnc12 [compound 8, 6-((2-chlorophenethyl)thio)-9H-purine]" quantity_unit="×10⁻⁶ cm/s" reported_value=11.6
compound="O=C(CSc1ncnc2[nH]cnc12)c1ccc(I)cc1 [compound 5]" quantity_unit="×10⁻⁶ cm/s" reported_value=10.5
compound="Clc1ccc(CCSc2ncnc3[nH]cnc23)cc1 [compound 6, 6-((4-chlorophenethyl)thio)-9H-purine]" quantity_unit="×10⁻⁶ cm/s" reported_value=25.1
compound="COc1cccc(C(=O)CSc2ncnc3[nH]cnc23)c1 [compound 4]" quantity_unit="×10⁻⁶ cm/s" reported_value=2.4
compound="COc1ccc(C(=O)CSc2ncnc3[nH]cnc23)cc1 [compound 2]" quantity_unit="×10⁻⁶ cm/s" reported_value=2.5
compound="Clc1cccc(CCSc2ncnc3[nH]cnc23)c1 [compound 7, 6-((3-chlorophenethyl)thio)-9H-purine]" quantity_unit="×10⁻⁶ cm/s" reported_value=10.6
compound="Fc1ccc(CCSc2ncnc3[nH]cnc23)cc1 [compound 9, 6-((4-fluorophenethyl)thio)-9H-purine]" quantity_unit="×10⁻⁶ cm/s" reported_value=10.2
